tested on: PXR:RXRa (NR concentration 270 nM, RXRa partner concentration 90 nM); experiment: PBM binding z-score (relative to random genomic background probes); higher = stronger binding; sequences stand for … in GC…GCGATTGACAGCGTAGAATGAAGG
Short version: PBM binding z-score at least 2 is 1, less is -1.

Worked examples, 5 sequences total:
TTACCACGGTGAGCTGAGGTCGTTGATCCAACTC :: 1
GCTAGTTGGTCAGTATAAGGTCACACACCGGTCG :: 1
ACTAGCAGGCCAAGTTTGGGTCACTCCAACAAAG :: -1
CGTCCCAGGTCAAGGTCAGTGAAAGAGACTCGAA :: 1
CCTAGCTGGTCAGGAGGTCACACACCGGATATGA :: 1

Dear colleague, could you confirm whether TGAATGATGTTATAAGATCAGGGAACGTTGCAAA has PBM binding z-score at or above 2? -1

Quick check, PBM binding z-score >= 2? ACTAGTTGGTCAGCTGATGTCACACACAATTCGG -1

Does the reported PBM binding z-score for ACAGAAAGGTGAGTGAAGGTAACTCAGCTGGACG fall at or above the 2 mark? -1

Please indicate if the recorded PBM binding z-score for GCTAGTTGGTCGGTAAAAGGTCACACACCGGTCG meets or exceeds 2. 1

Hello, I need to know if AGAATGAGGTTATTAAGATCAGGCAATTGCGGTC has measured PBM binding z-score not below 2. Thanks! -1

====

tested on: LXRa homodimer (NR concentration 270 nM); test: PBM binding z-score (relative to random genomic background probes); higher = stronger binding; sequences stand for … in GC…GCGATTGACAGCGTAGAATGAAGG
Classes by PBM binding z-score: low = under -0.2, medium = from -0.2 up to 0.4, high = 0.4 and over

Some solved cases for reference:
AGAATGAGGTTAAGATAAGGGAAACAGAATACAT :: medium
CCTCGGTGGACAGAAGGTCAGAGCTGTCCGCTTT :: medium
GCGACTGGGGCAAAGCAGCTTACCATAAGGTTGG :: low
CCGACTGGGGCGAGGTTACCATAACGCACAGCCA :: low
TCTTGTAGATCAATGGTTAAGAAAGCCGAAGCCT :: medium

# bin label for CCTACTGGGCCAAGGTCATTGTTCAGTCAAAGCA high

Lab note: sort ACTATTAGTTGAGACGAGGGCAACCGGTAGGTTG into the matching PBM binding z-score band. medium

For the record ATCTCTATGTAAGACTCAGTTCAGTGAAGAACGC , report the class its PBM binding z-score corresponds to. medium

Could you tell me which band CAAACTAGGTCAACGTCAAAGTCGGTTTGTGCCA belongs to? high

Lab note: which band did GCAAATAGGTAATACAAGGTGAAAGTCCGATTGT land in? high

Given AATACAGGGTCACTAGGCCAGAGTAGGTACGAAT , name the class its PBM binding z-score places it in. high

====

test system: PPARg:RXRa 30nM:10nM, anti-RXR (NR concentration 30 nM, RXRa partner concentration 10 nM); test: PBM binding z-score (relative to random genomic background probes); higher = stronger binding; sequences stand for … in GC…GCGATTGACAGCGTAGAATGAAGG
Please go through the items and note down their PBM binding z-score.
Numbers only.

ATCTCTTGGTAACCAAGTTCAGTGAATGCCGAAC :: -0.134
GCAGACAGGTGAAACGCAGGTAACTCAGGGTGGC :: -0.52
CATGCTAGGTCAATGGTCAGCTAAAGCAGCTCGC :: 2.27
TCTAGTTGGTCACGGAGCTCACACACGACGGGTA :: 2.94
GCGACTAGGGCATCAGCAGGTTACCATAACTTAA :: -0.0852
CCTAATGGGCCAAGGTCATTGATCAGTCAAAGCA :: 0.651

Please state PBM binding z-score for every sequence in the list that follows.
1. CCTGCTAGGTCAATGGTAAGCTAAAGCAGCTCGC
2. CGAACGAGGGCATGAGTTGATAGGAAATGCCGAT
3. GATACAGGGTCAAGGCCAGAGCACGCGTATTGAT
4. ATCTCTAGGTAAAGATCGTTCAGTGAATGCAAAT
5. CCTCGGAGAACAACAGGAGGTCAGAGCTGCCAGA
6. CCAGACAGGTGAACGGTAACTCAGTCTGGTACGC
7. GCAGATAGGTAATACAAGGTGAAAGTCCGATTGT

0.395
0.315
2.03
0.249
-1.02
-0.465
0.199

For the 4 sequences below, give their PBM binding z-score values.
1. ATCTCTAGGTAAGACTCAGTTCACTGAAGAACGC
2. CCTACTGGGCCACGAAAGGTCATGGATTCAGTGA
3. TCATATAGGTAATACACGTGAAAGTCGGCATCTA
4. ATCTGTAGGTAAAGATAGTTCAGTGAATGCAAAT

1. 0.222
2. 2.28
3. 3.93
4. 0.256

Every entry's value here was drawn from the supplement of paper PMC6555819.
